assay: PK of compound of Formula (Ia) after single subcutaneous dose of solution formulations in beagle dogs; type: in vivo; conditions: male, beagle, dog, plasma, sc, 6 mg/kg, 504 h; individual dogs; SC 6 mg/kg; solution V, 300 mg/mL
Observation type: concentration at 504 h (nM)
Numbers only, in nM.

Record summary for CC(C)(C#Cc1ccc(-c2ccc(Cl)c3c(NS(C)(=O)=O)nn(CC(F)(F)F)c23)c([C@H](Cc2cc(F)cc(F)c2)NC(=O)Cn2nc(C(F)(F)F)c3c2C(F)(F)[C@@H]2C[C@H]32)n1)S(C)(=O)=O : reported concentration at 504 h = 122

---

assay: PK of compound of Formula (Ia) after single subcutaneous dose of solution formulations in beagle dogs; assay type: in vivo; settings: male, beagle, dog, plasma, sc, 12 mg/kg, male beagle dogs, single SC 12 mg/kg, 400 mg/mL solution Y (water, PEG 300), mean ± SD, n = 3; read-out: AUC0-1344 h
Observation type: AUC(0-t) (µM·h)
Numbers only, in µM·h.

Record summary for CC(C)(C#Cc1ccc(-c2ccc(Cl)c3c(NS(C)(=O)=O)nn(CC(F)(F)F)c23)c([C@H](Cc2cc(F)cc(F)c2)NC(=O)Cn2nc(C(F)(F)F)c3c2C(F)(F)[C@@H]2C[C@H]32)n1)S(C)(=O)=O : reported AUC(0-t) = 172

---

experiment: PK of compound of Formula (Ia) after single subcutaneous dose of solution formulations in beagle dogs; type: in vivo; conditions: male, beagle, dog, plasma, sc, 12 mg/kg, beagle dogs, SC 12 mg/kg, 500 mg/mL solution X (5.00% ethanol, 1.91% poloxamer 188), 2688 h, Mean n = 3
Observation type: concentration at 2688 h (nM)
One number for each entry, in nM.

Record summary for CC(C)(C#Cc1ccc(-c2ccc(Cl)c3c(NS(C)(=O)=O)nn(CC(F)(F)F)c23)c([C@H](Cc2cc(F)cc(F)c2)NC(=O)Cn2nc(C(F)(F)F)c3c2C(F)(F)[C@@H]2C[C@H]32)n1)S(C)(=O)=O [compound of Formula (Ia)] : reported concentration at 2688 h = 14.6

---

test: PK of compound of Formula (Ia) after single subcutaneous dose of solution formulations in beagle dogs; format: in vivo; details: male, beagle, dog, plasma, sc, 12 mg/kg, beagle dogs, SC 12 mg/kg, 500 mg/mL solution X (5.00% ethanol, 1.91% poloxamer 188), 2016 h, Mean n = 3
Observation type: concentration at 2016 h (nM)
Answers are plain numbers, in nM.

Record summary for CC(C)(C#Cc1ccc(-c2ccc(Cl)c3c(NS(C)(=O)=O)nn(CC(F)(F)F)c23)c([C@H](Cc2cc(F)cc(F)c2)NC(=O)Cn2nc(C(F)(F)F)c3c2C(F)(F)[C@@H]2C[C@H]32)n1)S(C)(=O)=O : reported concentration at 2016 h = 23.4

---

assay: PK of compound of Formula (Ia) after single subcutaneous dose of solution formulations in beagle dogs; type: in vivo; conditions: male, beagle, dog, plasma, sc, 12 mg/kg, 336 h; individual dogs; SC 12 mg/kg; solution U, 500 mg/mL
Observation type: concentration at 336 h (nM)
Answers are plain numbers, in nM.

Record summary for CC(C)(C#Cc1ccc(-c2ccc(Cl)c3c(NS(C)(=O)=O)nn(CC(F)(F)F)c23)c([C@H](Cc2cc(F)cc(F)c2)NC(=O)Cn2nc(C(F)(F)F)c3c2C(F)(F)[C@@H]2C[C@H]32)n1)S(C)(=O)=O : reported concentration at 336 h = 114
